Origin of values: the nanobody polyreactivity screen of Harvey et al. (2022)

# assay method text: yeast display, Sf9 membrane polyspecificity reagent, FACS + sequencing; frameworks hold sequencing errors
measured metric: polyreactivity (PSR sort gate)

>>> readout_value("QVQLVESGGGLVQAGGSLRLSCAASGFIFEYNTMGWYIQAPGKERELVAAISFIGGRTYYADSVKRRFTLSRDNAKNTVYLQMNSLKPVDTAVNYCNKRYGGYYSGARRVLYYYWGQGTQVTVSS")
"high polyreactivity"
>>> readout_value("QVQLVESGGGLVQAGGSLRLSCAASGLTFRYNAMGWYRQAPGKERELVARISRNGGRTYYADSVKGRFTISRDNAKNTVYLQMNSLKPEDTAVYYCNVVYFVTTSPCYDYWGQGTQVTVSS")
"high polyreactivity"
>>> readout_value("QVQLVESGGGLVQAGGSLRLSCAASGFTFDFYAMGWYRQAPGKERELVAAINWSGSSTYYADSVKGRFTISRDNAKNTVYLQMNSLKPEDTAVYYCAAQVYYTLFPDVYTMYYWGQGTQVTVSS")
"high polyreactivity"
>>> readout_value("QFQLVESVGGLVQAGGSLRLSCAASGFIFGGYAMGWYIKAPGKERELVAAISSSGGSTYYADSVKGRFTISRDNAKNTVYLQMNSLKPEDTAVYYCAKVGWSRRYYYWGQGTQVTVSS")
"high polyreactivity"

---

# assay method text: yeast display, Sf9 membrane polyspecificity reagent, FACS + sequencing; frameworks hold sequencing errors
measured metric: polyreactivity (PSR sort gate)

>>> readout_value("QVHLVESGGGLVQAGGSLRLSCAASGFTFLVYAMRWYRKAPGKEREFVAAMNWSGDRTYYADSVKGLFTISREYAKNTVYLQMNSVKTEDTAVYYCAAVDYVYPQAYGYWGQGTQVTVSS")
"low polyreactivity"
>>> readout_value("QVQLVESGGGLVQAGGSLRLSCAASGTTFAKNAMGWYRQAPGKERELVAAISWSGGSTYYADSVKGRFTISRDNAKNSVYLQMNSLKPVDTAVYYCAADSPRYGGYGYWGQGTQVTVSS")
"low polyreactivity"

---

# assay method text: yeast display, Sf9 membrane polyspecificity reagent, FACS + sequencing; frameworks hold sequencing errors
measured metric: polyreactivity (PSR sort gate)

>>> readout_value("QVQLVESGGGLVQAGGSLRLSCAASGGTFNTYAMGWYRPAPGKERELVAAITSSGGSTFYADSVKWRFTISRDNAKNTVYLQMNSLKPEDTAVYYCAAKSYWTIVYRHPGYYYWGQGTQVTVSS")
"low polyreactivity"
>>> readout_value("QVQLVESGGGLVQAGGSLRLSCAASGSTFGHNAMGWYRQAPGKERELVAAIDSGDGTTYADSVKGRFTISRDNAKNTVYLQMNSLKPEDSAVYYWNVDLTTVGLWYYYRPGYDFWGQGTQVTVSS")
"low polyreactivity"

---

# assay method text: yeast display, Sf9 membrane polyspecificity reagent, FACS + sequencing; frameworks hold sequencing errors
measured metric: polyreactivity (PSR sort gate)

>>> readout_value("QVQLVESGGGLVQAGGSLRLSCAASGRTLVYYAMGWYRQAPGKERELVAAISWSGSRTYYADSVKGRFTISRDNAKNTVYLQMNSLKPEDTAVYYCATLTFRTNGTMDYWGQGTQVTVSS")
"high polyreactivity"
>>> readout_value("QVQLVESGGGLVQAGGSLRLSCAASGYTFRYYVMGWYIQAPGQERELVATISRGGRTNYADSVKGRFTISRDNAKNTVYLQMNSLKPEDTAVYYCNARTLYAYITRDYWGQGTQVTVSS")
"high polyreactivity"
>>> readout_value("QVQLVESGGGLVQAGGSLRLSCAASGSTFDSYAIGWYRQAPGKERELVAGISIVGSTNYADSVKGRFTISPDNAKNTVYLQLNSLKPEDTAVYYCNAGYFRGSNAIKVRLTYDHWGQGTQVTVSS")
"low polyreactivity"
>>> readout_value("QVQLEESGGGLVQAGGSLRLSCAASGRISESNDRGWYRQAPGKERQLVAAISSSGGSTYYADSVKGRFTISRDTAKNTVYLQLNSLKPEDTAVYYCAREYIFSVYDYSTSYYYWGQGTQVTVSS")
"low polyreactivity"

Looking up QVHLVESGGGLVQAGGSLLLSCDASGSIIKQYAMGWYRQAPGKERELVASIRWRDGSTYYADSVKGRFTISRDNAMNTVYLQMNSLKPEDTAVYYCAAYYCVWRYKYYYWGQGTQVTVSS , I found its polyreactivity (PSR sort gate) recorded as high polyreactivity

---

# assay method text: yeast display, Sf9 membrane polyspecificity reagent, FACS + sequencing; frameworks hold sequencing errors
measured metric: polyreactivity (PSR sort gate)

// solved cases for polyreactivity (PSR sort gate) follow
>>> readout_value("QDQLVESGGCLVQAGGSLRLSCAASGGTFLYYAMGWYRQAPGKERELVAAISRGGSTHYADSVKGRFTISRDNAKNTVYLQMNSLKPEDTAVYYCAAVRSHRKRINFYDYWGQGTQVTVSS")
"low polyreactivity"
>>> readout_value("QVQLVESGGGLVQAGGSLRLSCAASGSILQVYAMGWYRQAPGKERELVAGISWGGGRTYADSVKGRFTISRDNAKNTVYLQMISLKPEDTAVYYCNKVWRFGYYGSYYWGQGTLVTVSS")
"high polyreactivity"
>>> readout_value("QVQLVESGGGLVQAGGSLRLSCAASGRIFSRYAMGWYRQAPGKERELVAAIASSGTTTYYADSVKGRFTISRDIAKNTVYLQMNSLKAEDTAVYYCATSAVRHIYWGQGTQVTVSS")
"high polyreactivity"
>>> readout_value("QVQLVESGGGLVQAGGSLRLSCAASGRTFAKYAMGLYRQAPGKERELVAAITRGDTTNYADSVKGRFTISRDNAKNTVYLQMNSLKPEDTAVYYCAATPDPPHTYEYWGQGTQVTVSS")
"low polyreactivity"
>>> readout_value("QVQLVESGGGLVQAGGSLRLSCASSGSTFLAYAMGWDRQAPGKERELVAAISSRGSRTYYADSLKGRCTISRDTAKNTVYLQMNSLKPEDTAVYYCAARYPSGYYYWGQGTQVTVSS")
"high polyreactivity"

Looking up QVQLVESGGGLVQAGGSLRLSCAASGRIFAYYAMGWYRQAPGKERELVAAITTNGGGTYYADSVKGRFTISRDNAKNTVYLQMNSLKPEDTAVYYCNAVKQRSSIFDYWGQGTQVTVSS , I found its polyreactivity (PSR sort gate) recorded as low polyreactivity

Looking up QVQLVESGGGLVQAGGSLRLTCAASGGTFQPNAMGGYRQAPGKERELVAAISWSDGSTYYADSVKGRFTISRDNAKNTVYLQMKSLKPVDTAVYYCAADFTYYDSPYRDYNYESWGQGTQVTVSS , I found its polyreactivity (PSR sort gate) recorded as low polyreactivity

Looking up QVQLVESGGGLVQAGGSLRISCAASGSIFGLYAMGWYRQAPGKERELVAAINQSGGSTSYADSVKGRFTISRDNAKNTVYLQMNSLKPEDTAVYYCNRVRLNSEGFDYWGQGTQVTVSS , I found its polyreactivity (PSR sort gate) recorded as low polyreactivity

Looking up QVQLVESGGGLVQAGGSLRLSCAASGFIIIGYVMGWYRQAPGKERELVAAITSSGGSTYYADSVKGRFTISRDHAKNTVYLQMNSLKPEDTAVYYCAAEYYLLWSGMEYWGQGTQVTVSS , I found its polyreactivity (PSR sort gate) recorded as low polyreactivity

Looking up QVQLVESGGGLVHAGGSLRLSSSASGSTFPVYAMGWYRQAPGKQRELVAAITSGVSTNYADSVKWRFTISRENAKNTVYLQMNSLKPEDTAVYYCAKDFGLLPIRDDYWGQGTQVTVSS , I found its polyreactivity (PSR sort gate) recorded as low polyreactivity

Looking up QVQLVESGGGLVQAGGSLRLICAASGLTFPTYAMAWYRQAPGKERELVAAISRIGGRTYYADSVKGRFTISRDNAKNTVYLQMNSLKPEETAVYYCAADGIKGGVEYDYWGQGTQVTVSS , I found its polyreactivity (PSR sort gate) recorded as high polyreactivity

Looking up QVQLVDSGVGLVQAGGSHRLSCAASAFTIDGYDMGWYRQAPGKERELVAAISWDGGSTYYADSVKGRFTISRDNAKNTVYLQMNSLKPEDTAVYYCAAPFPFVSEFYRYDYWGQGTQVTVST , I found its polyreactivity (PSR sort gate) recorded as low polyreactivity

Looking up QVQLVESGGGLVQAGGSLRLSCAASGRTIIYNTMGWYRQAPGKEREFVAAINWSGGSTYYADSVKGRFTISRDNAKNTVYLQMNSLKPEDTAVYYCNAEAGYYRPLIYDYWGQGTQVTVSS , I found its polyreactivity (PSR sort gate) recorded as low polyreactivity

Looking up QVQLVESGGGLVQAGGSLRLSCAAAGSIFGDYVMGWYRQAPGKERELVPANTSATSTYYADSVKGRFTISRDNAKNTVYLQMNSLKPEDTAVYYCNADATYPLWPNIWYDYDYWGQGTQVTVSS , I found its polyreactivity (PSR sort gate) recorded as low polyreactivity

Looking up QVQLVESGGGLLQAGGSLRLSCAASRSTFFWYAMGWYRQAPGKERELVAANSKTGGSTYYADSVKGRFTISRDNAKNTVYLQMNSLKPEDTAVYYCARDYSWYYYGSQLFAHDYWGQGTQVTVSS , I found its polyreactivity (PSR sort gate) recorded as low polyreactivity

Looking up QVQLVESGGGLVLAGGSLRLSCAASGRTFGVYAMGWYRQAPGKERELVADITYRDGSTYYADSVKGRFTISRDNAKNTVYLQMHSLKPEDTAVYYCAAAESTWFDWVWMDYWGQGTQVTVSS , I found its polyreactivity (PSR sort gate) recorded as high polyreactivity

Looking up LVQLVQSGGGLVQAGGTLRISSAASGSTLDWYAMGWYRQAPGKERELVAAITSGGSTYYADSVKGRFTISRDNAKNTVYLQMNSLKPEDTAVYYCAAEYYTWYYDIYDYWGQGTQVTVSS , I found its polyreactivity (PSR sort gate) recorded as high polyreactivity

Looking up QVQLVDSGGGLVQAGGSLRLSCAASGRIFYPYAMGWYREATGKERELVAAMTRRTASTYYADSVKGRFTISRDNAKNTVYLQMNSLKPQDTAVYYCAAVSYLKRPYYAGYYYWGQGTQVTVSS , I found its polyreactivity (PSR sort gate) recorded as high polyreactivity

Looking up QVQLVESGGGLVQAGGSLRLSCAASGRIFKPYVMGWYRQAPGKERELVASITWNGGRTYYADSVKGRFTISRDNAKNTVYLQMNSLKPEDTAVYYCAADYWTTADPRNIIKYDYWGQGTQVTVSS , I found its polyreactivity (PSR sort gate) recorded as high polyreactivity

Looking up QVQLVESGGGLVQAGGSLRLSCAASGRTFISNAMGWYRQAPGKERELVATINSGGSTNYADSVKGRFTISRDNAKNTVYLQMNSLKPEDTAVYYCARRVRYKHYDYWGQGTQVTVSS , I found its polyreactivity (PSR sort gate) recorded as high polyreactivity

Looking up QVQLVESGGGLVQAGGSLRLSCAASGRTFWYYAMGWSRQAPGKERELVATITSGGSTYYADSVKGRFTISRDNAKNTVYLQMNSLKPEDTAVYYCAARKYYSRAYDYWGQGTQVTVSS , I found its polyreactivity (PSR sort gate) recorded as high polyreactivity
